Origin of values: paper PMC11672294

Test system: HT29
run parameters: 72 h, relative to DMSO; 10 µM
Where a name gives a salt, the structure may show the parent alone.
Note to self: use yes (1) only for Relative cell viability (%) readings below 90%; a reading exactly at 90% still gets no (0).

[
  {
    "molecule": "Cc1cccc([C@H](C)c2cnc[nH]2)c1C [Dexmedetomidine HCl (Precedex)]",
    "qualitative label": "no (0)"
  }
]

Please indicate whether the reported Relative cell viability (%) of CO[C@H]1O[C@@H]2O[C@@]3(C)CC[C@H]4[C@H](C)CC[C@@H]([C@H]1C)[C@@]24OO3 [Artemether] is strictly below 90%.
no (0)

Answer whether the molecule NS(=O)(=O)NCCNc1nonc1C(=NO)Nc1ccc(F)c(Br)c1 [Epacadostat (INCB024360)] has Relative cell viability (%) strictly less than 90%
no (0)

Dear colleague, could you confirm whether Relative cell viability (%) of Cc1cc(/C=C/C#N)cc(C)c1Nc1ccnc(Nc2ccc(C#N)cc2)n1 [Rilpivirine] falls below 90%? Thanks.
yes (1)

Relative cell viability (%) strictly < 90% for this molecule? N#C[C@@H]1CCCN1C(=O)CNC12CC3CC(CC(O)(C3)C1)C2 [Vildagliptin (LAF-237)]
no (0)

Bench note: check whether CC(C)(O)c1ccccc1CC[C@@H](SCC1(CC(=O)O)CC1)c1cccc(/C=C/c2ccc3ccc(Cl)cc3n2)c1 [Montelukast Sodium] shows Relative cell viability (%) below 90%
yes (1)

Is Relative cell viability (%) strictly under 90% for the entry C/C(O)=C(\C#N)C(=O)Nc1ccc(C(F)(F)F)cc1 [Teriflunomide] ?
yes (1)

----------
Tested on: HT29
run parameters: 72 h, relative to DMSO; 10 µM
Where a name gives a salt, the structure may show the parent alone.
# Condition met = Relative cell viability (%) below 70% (exclusive); Condition not met = Relative cell viability (%) at/above 70%

[
  {
    "compound": "CCCCOc1cc(C(=O)OCCN(CC)CC)ccc1N [Oxybuprocaine HCl]",
    "qualitative label": "Condition met"
  },
  {
    "compound": "CN(C)CCc1c[nH]c2ccc(CS(=O)(=O)N3CCCC3)cc12 [Almotriptan Malate]",
    "qualitative label": "Condition not met"
  },
  {
    "compound": "CN1CCC(=C2c3ccccc3C=Cc3ccccc32)CC1 [Cyproheptadine HCl]",
    "qualitative label": "Condition met"
  },
  {
    "compound": "CC#CCn1c(N2CCC[C@@H](N)C2)nc2c1c(=O)n(Cc1nc(C)c3ccccc3n1)c(=O)n2C",
    "qualitative label": "Condition met"
  },
  {
    "compound": "CCOc1nc2cccc(C(=O)OC(C)OC(=O)OC3CCCCC3)c2n1Cc1ccc(-c2ccccc2-c2nnn[nH]2)cc1 (centres unmarked)",
    "qualitative label": "Condition not met"
  },
  {
    "compound": "N#Cc1ccc(C(c2ccc(C#N)cc2)n2cncn2)cc1",
    "qualitative label": "Condition not met"
  }
]

Consider now this further compound.
# TODO verify Relative cell viability (%) < 70% strictly for this compound: CO/N=C(\C(=O)N[C@@H]1C(=O)N2C(C(=O)OCOC(=O)C(C)(C)C)=C(/C=C\c3scnc3C)CS[C@H]12)c1csc(N)n1
Condition met

----------
Tested on: HT29
run parameters: 72 h, relative to DMSO; 10 µM
Structures can show the parent of a compound that is named as a salt.
endpoint: Relative cell viability (%) (%)
Return type: number; implicit unit %.

Below: 3 molecules and their reported Relative cell viability (%).
[
  {
    "molecule": "CCOC(=O)[C@H](CCc1ccccc1)N[C@@H](C)C(=O)N1C(=O)N(C)C[C@H]1C(=O)O [Imidapril HCl]",
    "unit info": "%",
    "Relative cell viability (%)": 128.5
  },
  {
    "molecule": "CC1(C)S[C@@H]2[C@H](NC(=O)[C@H](N)c3ccc(O)cc3)C(=O)N2[C@H]1C(=O)O [Amoxicillin]",
    "unit info": "%",
    "Relative cell viability (%)": 67.96
  },
  {
    "molecule": "C=CC(=O)N1CCC(Oc2cc3c(Nc4ccc(Cl)c(Cl)c4F)ncnc3cc2OC)CC1 [Poziotinib (HM781-36B)]",
    "unit info": "%",
    "Relative cell viability (%)": 68.8
  }
]

Return reported Relative cell viability (%). Input molecule: O=C(O)c1cc(=O)c2ccccc2o1 [Chromocarb]
81.21

----------
Tested on: HT29
run parameters: 72 h, relative to DMSO; 10 µM
Starred links: 1 amine or outer side, 2 acyl side, 3 side chain; linkers in the order of their positions; H or OH if unused. Positions of bridges follow the written chain, without caps; N, C: chain ends. Non-standard residues stand in square brackets, D forms with d. Residues, ends and D or L forms follow the SMILES beside them. *: point of attachment. hTyr(3S-OH,4S-OH,3'-OSO3H) = N[C@H](C(=O)O)[C@H](O)[C@@H](O)c1ccc(O)c(OS(=O)(=O)O)c1; Orn(4R-OH,5R-OH) = O=C([C@H](C[C@@H](O)[C@@H](O)N[*:3])N[*:1])[*:2]; Pro(3S-OH,4S-Me) = C[C@H]1CN[C@H](C(=O)O)[C@H]1O; X1 = CCCCCOc1ccc(-c2cc(-c3ccc(C(=O)*)cc3)no2)cc1; Gln(3R-OH) = NC(=O)C[C@@H](O)[C@H](N)C(=O)O; Hyp = O=C(O)[C@@H]1C[C@@H](O)CN1
endpoint: Relative cell viability (%) (%)
# output: bare number, implied unit %

Worked set:
[
  {
    "compound": "CCCCCOc1ccc(-c2cc(-c3ccc(C(=O)N[C@H]4C[C@@H](O)[C@@H](O)NC(=O)[C@@H]5[C@@H](O)[C@@H](C)CN5C(=O)[C@H]([C@H](O)CC(N)=O)NC(=O)[C@H]([C@H](O)[C@@H](O)c5ccc(O)c(OS(=O)(=O)O)c5)NC(=O)[C@@H]5C[C@@H](O)CN5C(=O)[C@H]([C@@H](C)O)NC4=O)cc3)no2)cc1 [Micafungin Sodium] (X1-[Orn(4R-OH,5R-OH)]T[Hyp][hTyr(3S-OH,4S-OH,3'-OSO3H)][Gln(3R-OH)][Pro(3S-OH,4S-Me)]; lactam 1-C)",
    "endpoint": "Relative cell viability (%)",
    "unit info": "%",
    "number": 77.58
  },
  {
    "compound": "NC(=O)c1ncn([C@@H]2O[C@H](CO)[C@@H](O)[C@H]2O)c1N",
    "endpoint": "Relative cell viability (%)",
    "unit info": "%",
    "number": 105.9
  },
  {
    "compound": "C[C@@H]1CCO[C@H]2Cn3cc(C(=O)NCc4ccc(F)cc4F)c(=O)c(O)c3C(=O)N12",
    "endpoint": "Relative cell viability (%)",
    "unit info": "%",
    "number": 70.87
  }
]

Please report the measured Relative cell viability (%) for CN(C)CCN1C(=O)c2cccc3cc(N)cc(c23)C1=O [Amonafide]
8.879

Dear colleague, please send me the reported Relative cell viability (%) for C[C@@H](O)[C@H]1C(=O)N2C(C(=O)O)=C(S[C@@H]3CN[C@H](CNS(N)(=O)=O)C3)[C@H](C)[C@H]12 [Doripenem Hydrate] when you can.
88.32

----------
Tested on: HT29
run parameters: 72 h, relative to DMSO; 10 µM
Experimental: To investigate the key signaling pathways and biological processes involved in CRC progression, we analyzed the National Center for Biotechnology Information Gene Expression Omnibus (GEO) dataset GSE115313, which included 42 CRC and paired normal tissues (Figure 1A). […] Absorbance at the wavelength of 450 nm was measured using an automated microplate spectrophotometer (BioTek Instruments, Winooski, VT, USA).
Structures can show the parent of a compound that is named as a salt.
Each entry below lists one item and its recorded Relative cell viability (%) value.
Could you give me the number in %? Just the number is fine.

Field: example entries. Status: answers known.
[
  {
    "molecule": "CC(C(=O)O)c1ccc(CC2CCCC2=O)cc1 (centres unmarked) [Loxoprofen]",
    "endpoint": "Relative cell viability (%)",
    "number": 82.91
  },
  {
    "molecule": "COc1cc2nc(N3CCN(C(=O)C4COc5ccccc5O4)CC3)nc(N)c2cc1OC (centres unmarked) [Doxazosin Mesylate]",
    "endpoint": "Relative cell viability (%)",
    "number": 63.4
  },
  {
    "molecule": "CN1CCN2c3ncccc3Cc3ccccc3C2C1 (centres unmarked) [Mirtazapine]",
    "endpoint": "Relative cell viability (%)",
    "number": 177.9
  },
  {
    "molecule": "COC1=C(OC)C(=O)C(CCCCCCCCCCO)=C(C)C1=O [Idebenone]",
    "endpoint": "Relative cell viability (%)",
    "number": 41.75
  }
]

Proceeding to the next molecule to report its Relative cell viability (%).
Fill in Relative cell viability (%) for record Cc1nc(Nc2ncc(C(=O)Nc3c(C)cccc3Cl)s2)cc(N2CCN(CCO)CC2)n1 [Dasatinib Monohydrate]
20.09
